I'd appreciate it if you could supply inhibition values for the items below.
# target-desc: SARS-CoV-2 Main Protease (SARS-CoV-2)
# reported-conditions: 20.0 µM
Numbers only here, please. The scale is %.

Entry `CCCc1c(C)[nH]c2[nH]n(-c3ccccc3)c(=O)c2c1=O` : reported inhibition = ?
4.23

Entry C=CC(=O)N(c1ccc(S(F)(F)(F)(F)F)cc1)C(C(=O)Nc1ccc(OC)cc1)c1cccnc1 (stereo unspecified) : reported inhibition = ?
15.7

Entry Cc1ccnc(C)c1NC(=O)C(C)c1ccc(F)c(F)c1 (stereo unspecified) : reported inhibition = ?
-0.411

Entry `Cn1cnnc1NC(=O)Cc1cccc(Cl)c1F` : reported inhibition = ?
5.1

Entry C=CC(=O)N(c1ccc(C(C)(C)CC)cc1)C(C(=O)Nc1cccc(F)c1C)c1cccnc1 (stereo unspecified) : reported inhibition = ?
16.3

Entry `COc1ccncc1NC(=O)C(C)(C)c1cc(F)cc(C#N)c1` : reported inhibition = ?
20

Entry `NS(=O)(=O)CCc1ccccc1CN1CCN(C(=O)CCl)CC1` : reported inhibition = ?
101

Entry C/C=C/C(=O)Nc1cccc(OC2CC(=O)N2)c1 (stereo unspecified) : reported inhibition = ?
-3.03

Entry CC(C)c1ncncc1NC(=O)C(C)c1cccc(Cl)c1 (stereo unspecified) : reported inhibition = ?
6.43

Entry C=CC(=O)N(c1cc(C(C)(C)C)on1)C(C(=O)NC(C)(C)C)c1cccnc1 (stereo unspecified) : reported inhibition = ?
7.86

Entry `O=C1Nc2ccc(OCCF)cc2C1=O` : reported inhibition = ?
-6.86
